- TEST SUMMARY: Toxicokinetics of oral AGN 194310 in rats (drug in blood by GC/MS)
- Type: in vivo, rat
- CONDITION DESCRIPTION: both sexes, Sprague-Dawley, rat, whole blood, po, 0.15 mg/kg/day, 0.01% AGN 194310 (0.15 mg/kg/day), Day 22, mean ± SD, N = 8
MEASURED METRIC: Cmax (ng/mL)
Please reply with the bare figure in ng/mL and do not write the unit itself.

Data request: For CCc1ccc(C2=CC(C)(C)Sc3ccc(C#Cc4ccc(C(=O)O)cc4)cc32)cc1 [AGN 194310] , what is its reported Cmax?
Data returned: 42.4

====

- TEST SUMMARY: Toxicokinetics of oral AGN 194310 in rats (drug in blood by GC/MS)
- Assay type: in vivo, rat
- CONDITION DESCRIPTION: both sexes, Sprague-Dawley, rat, whole blood, po, 0.015 mg/kg/day, Day 22, mean ± SEM, N = 8, read-out: AUC24 hr
MEASURED METRIC: AUC(0-t) (ng·h/mL)
# number only, unit ng·h/mL dropped from output

Data request: // query AUC(0-t) value for entry `CCc1ccc(C2=CC(C)(C)Sc3ccc(C#Cc4ccc(C(=O)O)cc4)cc32)cc1`
Data returned: 63.6

====

- TEST SUMMARY: Toxicokinetics of oral AGN 194310 in rats (drug in blood by GC/MS)
- Format: in vivo, rat
- CONDITION DESCRIPTION: both sexes, Sprague-Dawley, rat, whole blood, 0.005 mg/kg/day, Day 22
MEASURED METRIC: Tmax
# output: numeric value plus its unit

Data request: Given the compound `CCc1ccc(C2=CC(C)(C)Sc3ccc(C#Cc4ccc(C(=O)O)cc4)cc32)cc1` , what is its reported Tmax?
Data returned: 2 h
